Assay: In-vivo pharmacokinetic evaluation, single dose
Design: species or system New Zealand White rabbits
Settings: New Zealand White, whole blood, 1 mg; heading: Average Tac conc.; rabbit blood, 8.0 (640 mins) after single 1 mg dose (oral or buccal patch)
Value Type: concentration at 8 h (ng/mL)
Respond numerically; units are ng/mL and should not be typed.

Entry C=CC[C@@H]1/C=C(\C)C[C@H](C)C[C@H](OC)[C@H]2O[C@@](O)(C(=O)C(=O)N3CCCC[C@H]3C(=O)O[C@H](/C(C)=C/[C@@H]3CC[C@@H](O)[C@H](OC)C3)[C@H](C)[C@@H](O)CC1=O)[C@H](C)C[C@@H]2OC (relative stereo) [Tacrolimus, monohydrate] — recorded concentration at 8 h = 11.8
